The following compounds are shown together with reported TGI values.
# Tested on: UACC-62 melanoma
# assay_comment: NCI tumour cell line growth inhibition, 48 h
value_kind: TGI

> print(dat)
                                    compound       system.name  assay.value
 1       NC(CCSCCF)C(=O)O (stereo not drawn)  UACC-62 melanoma     > 100 µM
 2  COc1cc(/C=C/C(=O)N[C@@H]2C(=O)N3[C@@H]2SC(C)(C)[C@@H]3C(=O)O)ccc1O  UACC-62 melanoma     > 100 µM
 3  COc1ccc(/C=C\c2cc(OC)c(OC)c(OC)c2)cc1N/C=C\C(=O)c1c[nH]c2ccccc12  UACC-62 melanoma      64.2 µM
 4               NC(=O)/C=C/c1c[nH]c2nccnc12  UACC-62 melanoma      8.85 µM
 5  CN(C)c1ccc(/C=C2\C[C@H]3[C@@H]4CC=C5C[C@@H](O)CC[C@]5(C)[C@H]4CC[C@]3(C)[C@H]2O)cc1  UACC-62 melanoma      30.2 µM
 6  NCCNc1nc2ccc(F)cc2c2c(=O)c3cc(F)ccc3sc12  UACC-62 melanoma      3.06 µM
 7  CCOC1Oc2ccccc2-c2nc(N)ncc21 (stereo not drawn)  UACC-62 melanoma     > 100 µM
 8  N#CC1=C(N)Oc2c(ccc3cccnc23)C1c1ccccc1 (stereo not drawn)  UACC-62 melanoma      24.6 µM
 9                O=C1CNc2cc(N3CCCCC3)ccc2N1  UACC-62 melanoma     > 100 µM
10    COc1ccc(OC)c2c1ccc1c(C)c3ccccc3c(C)c12  UACC-62 melanoma     > 100 µM
11  OCC(O)C(OC1OC(CO)C(O)C(O)C1O)c1nn(-c2ccc(Cl)cc2)c2nc3cc(Cl)c(Cl)cc3nc12 (stereo not drawn)  UACC-62 melanoma     > 100 µM
12      CCCCCCCCCCCCCC/C(C(=O)O)=C(\C)C(=O)O  UACC-62 melanoma     > 100 µM
13  C=CC(=O)N1CCC(CNc2ncnc(N)c2-c2ccc(Oc3ccccc3)cc2)CC1  UACC-62 melanoma      34.8 µM
14  COc1ccc2c3c([nH]c2c1)[C@H](C=C(C)C)N1C(=O)[C@@H]2CCCN2C(=O)[C@@H]1C3  UACC-62 melanoma     > 100 µM
15  Oc1ccc(Cl)cc1C1=Nn2c(COc3ccc4c(c3)CCCC4)nnc2SC1  UACC-62 melanoma      25.4 µM
16  CC(C)C1COC(C(C)(C)C2=N[C@@H](C(C)C)CO2)=N1 (stereo partly drawn)  UACC-62 melanoma     > 100 µM
17   Fc1c(F)c(F)c(CSc2nc3ccccc3[nH]2)c(F)c1F  UACC-62 melanoma     > 100 µM
18              CN(C)CCSC(=Nc1ccccc1)n1cccc1  UACC-62 melanoma     > 100 µM
19  CC(=O)Nc1ccc(S(=O)(=O)N/N=C(\C)CN2C(=O)c3ccccc3C2=O)cc1  UACC-62 melanoma     > 100 µM
20  Cc1cc(=O)[nH]c(Sc2ccc([N+](=O)[O-])cc2[N+](=O)[O-])n1  UACC-62 melanoma      41.4 µM
21  COC(=O)C1=C(C(=O)OC)N(c2ccncc2)C(c2ccco2)=CC1c1ccccc1[N+](=O)[O-] (stereo not drawn)  UACC-62 melanoma        27 µM
22     Nc1ccc(Cc2ccc(N)c(C(=O)O)c2)cc1C(=O)O  UACC-62 melanoma     > 100 µM
23  CN(CCCNC(=O)c1nn(-c2ccccc2)c2c1Cc1ccccc1-2)CCCNC(=O)c1nn(-c2ccccc2)c2c1Cc1ccccc1-2  UACC-62 melanoma      3.26 µM
24                        Oc1cc(F)cc2cccnc12  UACC-62 melanoma    > 42.6 µM
25  COc1ccc([C@H]2[C@@H]3CCc4ccccc4C3=NN2C(N)=S)cc1OC  UACC-62 melanoma     > 100 µM
26    N#CC(C#N)=C(N)/C(C#N)=C/c1ccc(O)c(O)c1  UACC-62 melanoma     > 100 µM
27            CC1=C(c2ccccc2)CON(c2ccccc2)C1  UACC-62 melanoma     > 100 µM
28  Cc1cc(=O)[nH]c(S(=O)(=O)NC(=O)Nc2cccc(Cl)c2)n1  UACC-62 melanoma     > 100 µM
29     Nc1nc(N)c2cc(S(=O)(=O)c3ccccc3)ccc2n1  UACC-62 melanoma     > 100 µM
30  O=C1/C(=C\c2cccc(Oc3ccccc3)c2)SC(c2ccccc2)N1Cc1ccccc1 (stereo not drawn)  UACC-62 melanoma     > 100 µM
31  COc1ccc(C2C(C(=O)O)=C(CO)Oc3cc4c(cc32)OCO4)c(OC)c1 (stereo not drawn)  UACC-62 melanoma     > 100 µM
32  O=C1c2ccccc2-c2c1c1ccc([N+](=O)[O-])cc1c(=O)n2CCN1CCOCC1  UACC-62 melanoma     > 100 µM
33  COC(=O)[C@]12CC[C@@H](C)[C@H](C)[C@@H]1C1=CC[C@@H]3[C@@]4(C)C(C=O)=C[C@@](C)(COC(=O)c5ccco5)C4=CC[C@@]3(C)[C@]1(C)CC2  UACC-62 melanoma      2.24 µM
